Please go through the items and note down their pIC50.
# SYSTEM: PI3K-α (Homo sapiens, UniProt P42336)
# Sequence (P42336 whole entry, species assumed): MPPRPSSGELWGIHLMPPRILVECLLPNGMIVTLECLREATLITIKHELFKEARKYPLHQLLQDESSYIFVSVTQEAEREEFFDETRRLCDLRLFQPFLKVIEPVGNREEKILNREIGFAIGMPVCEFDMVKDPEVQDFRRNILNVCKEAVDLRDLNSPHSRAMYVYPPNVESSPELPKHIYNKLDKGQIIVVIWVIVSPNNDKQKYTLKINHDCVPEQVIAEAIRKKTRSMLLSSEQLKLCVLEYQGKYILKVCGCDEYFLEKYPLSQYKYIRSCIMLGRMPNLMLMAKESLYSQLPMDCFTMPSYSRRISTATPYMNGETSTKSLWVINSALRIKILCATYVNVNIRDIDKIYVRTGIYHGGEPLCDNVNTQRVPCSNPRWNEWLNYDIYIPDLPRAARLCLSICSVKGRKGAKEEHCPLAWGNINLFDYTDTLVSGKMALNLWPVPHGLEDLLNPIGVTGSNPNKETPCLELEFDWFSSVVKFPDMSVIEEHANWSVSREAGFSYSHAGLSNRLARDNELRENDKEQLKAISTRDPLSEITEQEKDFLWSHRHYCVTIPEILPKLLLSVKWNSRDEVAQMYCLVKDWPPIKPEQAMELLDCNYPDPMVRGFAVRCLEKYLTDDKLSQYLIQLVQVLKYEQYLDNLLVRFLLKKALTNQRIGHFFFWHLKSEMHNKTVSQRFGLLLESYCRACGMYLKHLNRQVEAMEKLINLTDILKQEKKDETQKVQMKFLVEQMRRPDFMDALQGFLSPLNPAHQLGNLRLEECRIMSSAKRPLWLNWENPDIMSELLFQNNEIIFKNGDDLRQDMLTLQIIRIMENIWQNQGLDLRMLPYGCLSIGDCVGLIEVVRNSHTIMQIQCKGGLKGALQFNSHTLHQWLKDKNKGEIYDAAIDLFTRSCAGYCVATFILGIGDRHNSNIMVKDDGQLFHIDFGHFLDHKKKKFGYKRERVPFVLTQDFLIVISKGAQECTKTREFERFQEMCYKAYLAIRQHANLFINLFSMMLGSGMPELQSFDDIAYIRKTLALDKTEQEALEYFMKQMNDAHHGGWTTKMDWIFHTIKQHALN
# Sequence (P27986 whole entry partner, species assumed): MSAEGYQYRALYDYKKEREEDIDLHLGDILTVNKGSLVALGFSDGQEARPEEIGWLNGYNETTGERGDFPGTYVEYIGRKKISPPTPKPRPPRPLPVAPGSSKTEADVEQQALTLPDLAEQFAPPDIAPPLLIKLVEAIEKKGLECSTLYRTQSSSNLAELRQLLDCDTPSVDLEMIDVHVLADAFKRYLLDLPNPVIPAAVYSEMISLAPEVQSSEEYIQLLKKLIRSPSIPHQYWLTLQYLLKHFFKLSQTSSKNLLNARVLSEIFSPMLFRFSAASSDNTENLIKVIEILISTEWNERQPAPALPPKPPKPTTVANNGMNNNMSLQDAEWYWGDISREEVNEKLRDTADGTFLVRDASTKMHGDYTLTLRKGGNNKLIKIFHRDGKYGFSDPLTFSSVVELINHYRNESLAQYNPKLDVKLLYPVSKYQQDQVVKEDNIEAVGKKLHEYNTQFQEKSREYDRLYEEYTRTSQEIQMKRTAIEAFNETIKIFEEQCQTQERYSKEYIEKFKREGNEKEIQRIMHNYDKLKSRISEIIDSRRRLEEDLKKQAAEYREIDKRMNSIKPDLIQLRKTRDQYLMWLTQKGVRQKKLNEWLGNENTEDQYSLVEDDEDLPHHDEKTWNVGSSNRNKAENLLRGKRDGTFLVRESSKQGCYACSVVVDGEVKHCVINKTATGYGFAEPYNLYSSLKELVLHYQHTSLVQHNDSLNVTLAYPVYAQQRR
# METHOD_SUMMARY: PI3K-alpha fluorescence polarization assay
# CONDITION_DETAILS: read-out: IC50 PI3Kα
Keep it numeric: pIC50 is minus log10 of the concentration in mol/L.

So, CC(C)Nc1nc(-c2ccc(NC(=O)Nc3ccc(OCCN(C)C)cc3)cc2)nc(N2CC3CCC(C2)O3)n1 ? Its pIC50 was 6.56

So, CN1CCN(c2ccc(NC(=O)Nc3ccc(-c4nc(-c5ccc(NC(=O)Nc6ccc(N7CCN(C)CC7)cc6)cc5)nc(N5CC6CCC(C5)O6)n4)cc3)cc2)CC1 ? Its pIC50 was 5.71

So, CCN1CCN(C(=O)c2ccc(NC(=O)Nc3ccc(-c4nc(-c5cccs5)nc(N5CCOCC5)n4)cc3)cc2)CC1 ? Its pIC50 was 8.52

###

Please go through the items and note down their IC50.
# SYSTEM: PI3K-γ (Homo sapiens)
# Sequence (P48736 whole entry, species assumed): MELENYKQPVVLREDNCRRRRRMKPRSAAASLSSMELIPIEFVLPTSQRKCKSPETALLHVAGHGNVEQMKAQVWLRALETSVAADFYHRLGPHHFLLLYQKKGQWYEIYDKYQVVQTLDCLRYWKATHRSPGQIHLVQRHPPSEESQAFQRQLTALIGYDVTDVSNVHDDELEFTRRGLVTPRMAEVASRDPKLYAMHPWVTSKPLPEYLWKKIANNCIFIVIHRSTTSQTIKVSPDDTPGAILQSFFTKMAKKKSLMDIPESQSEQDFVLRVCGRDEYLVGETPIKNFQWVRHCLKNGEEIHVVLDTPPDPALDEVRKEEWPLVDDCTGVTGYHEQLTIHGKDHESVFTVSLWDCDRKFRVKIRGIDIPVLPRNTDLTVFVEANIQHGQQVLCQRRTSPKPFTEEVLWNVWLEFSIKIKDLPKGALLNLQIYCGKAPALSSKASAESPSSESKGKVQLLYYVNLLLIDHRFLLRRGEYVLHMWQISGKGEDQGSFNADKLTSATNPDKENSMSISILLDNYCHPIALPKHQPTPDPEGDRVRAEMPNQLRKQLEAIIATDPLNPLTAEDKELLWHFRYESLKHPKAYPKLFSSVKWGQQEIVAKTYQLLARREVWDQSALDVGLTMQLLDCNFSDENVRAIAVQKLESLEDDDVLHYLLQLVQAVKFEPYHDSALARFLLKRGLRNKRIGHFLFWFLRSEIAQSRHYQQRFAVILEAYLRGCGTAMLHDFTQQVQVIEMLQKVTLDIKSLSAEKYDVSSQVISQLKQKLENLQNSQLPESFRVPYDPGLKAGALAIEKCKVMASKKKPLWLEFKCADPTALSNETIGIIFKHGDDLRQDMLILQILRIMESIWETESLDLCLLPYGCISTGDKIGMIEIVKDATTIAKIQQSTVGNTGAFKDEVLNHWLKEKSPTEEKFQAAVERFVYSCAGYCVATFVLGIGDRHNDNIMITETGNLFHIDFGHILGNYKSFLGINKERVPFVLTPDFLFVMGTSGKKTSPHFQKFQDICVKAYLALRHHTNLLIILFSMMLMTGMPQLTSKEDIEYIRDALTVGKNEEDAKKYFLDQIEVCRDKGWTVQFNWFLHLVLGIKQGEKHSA
# METHOD_SUMMARY: PI3K-gamma fluorescence polarization assay
# CONDITION_DETAILS: read-out: IC50 PI3Kγ
The reply should contain only the number, in nM.

Bench note, PI3K-γ (Homo sapiens): entry O=C(Nc1ccccc1)Nc1ccc(-c2nc(NC3CNC3)nc(N3CCOCC3)n2)cc1 , its IC50 = 90

Bench note, PI3K-γ (Homo sapiens): entry CC(O)c1nc(-c2ccc(NC(=O)Nc3ccncc3)cc2)nc(N2CCOCC2)n1 (stereo not drawn) , its IC50 = 200

Bench note, PI3K-γ (Homo sapiens): entry C=C(OCC)c1nc(-c2ccc(NC(=O)Nc3ccncc3)cc2)nc(N2CCOCC2)n1 , its IC50 = 144

Bench note, PI3K-γ (Homo sapiens): entry CCN1CCN(C(=O)c2ccc(NC(=O)Nc3ccc(-c4nc(N5CCOCC5)nc(N5C6CCC5COC6)n4)cc3)cc2)CC1 , its IC50 = 29

Bench note, PI3K-γ (Homo sapiens): entry O=C(Nc1ccncc1)Nc1ccc(-c2nc(N3CCOCC3)nc(N3CC4CCC(C3)O4)n2)cc1 , its IC50 = 40

Bench note, PI3K-γ (Homo sapiens): entry C[C@@H]1COCCN1c1nc(-c2ccc(NC(=O)Nc3ccc(OCCN(C)C)cc3)cc2)nc(C2CCOCC2)n1 , its IC50 = 1420

Bench note, PI3K-γ (Homo sapiens): entry O=C(Nc1ccncc1)Nc1ccc(-c2nc(-c3cnc4ccccc4c3)nc(N3CCOCC3)n2)cc1 , its IC50 = 117

Bench note, PI3K-γ (Homo sapiens): entry O=C(Nc1ccncc1)Nc1ccc(-c2nc(C3=CCOCC3)nc(N3C4CCC3COC4)n2)cc1 , its IC50 = 433

Bench note, PI3K-γ (Homo sapiens): entry CN(C)CCCNC(=O)c1ccc(NC(=O)Nc2ccc(-c3nc(-c4ccccc4)nc(N4CCOCC4)n3)cc2)cc1 , its IC50 = 54

Bench note, PI3K-γ (Homo sapiens): entry CC(C)Cc1nc(-c2ccc(NC(=O)Nc3ccc(N4CCN(C)CC4)cc3)cc2)nc(N2CCOCC2)n1 , its IC50 = 70

Bench note, PI3K-γ (Homo sapiens): entry O=C(Nc1ccc(C(=O)N2CCOCC2)cc1)Nc1ccc(-c2nc(C3CCOCC3)nc(N3C4CCC3COC4)n2)cc1 , its IC50 = 1080

Bench note, PI3K-γ (Homo sapiens): entry CN1CCN(CCCc2nc(-c3ccc(NC(=O)Nc4ccncc4)cc3)nc(N3CCOCC3)n2)CC1 , its IC50 = 276

Bench note, PI3K-γ (Homo sapiens): entry O=C1CCN(c2nc(-c3ccc(NC(=O)Nc4ccncc4)cc3)nc(N3CC4CCC(C3)O4)n2)CC1 , its IC50 = 2000

Bench note, PI3K-γ (Homo sapiens): entry CCc1nc(-c2ccc(NC(=O)Nc3cccc(C(=O)O)c3)cc2)nc(N2CCOCC2)n1 , its IC50 = 131

Bench note, PI3K-γ (Homo sapiens): entry CN(C)C1CCN(C(=O)c2ccc(NC(=O)Nc3ccc(-c4nc(N5CCOCC5)nc(N5C6CCC5COC6)n4)cc3)cc2)CC1 , its IC50 = 18.5
